Where these numbers come from: patent US9976134B2

# measurement-protocol: Stability assay in 25% TIDE 2X detergent with DTPA (residual Abz-AGLA-Nba protease activity)
# Format: physicochemical
# test-conditions: 60 min at 32°C; variant residual AGLA activity divided by wild-type residual activity
readout-kind: PI (relative stability), 25% TIDE 2X with DTPA

molecule: Y151V: single-substitution thermolysin variant (SEQ ID NO:3 numbering) (protein, listed as Geobacillus caldoproteolyticus) ITGTSTVGVGRGVLGDQKNINTTYSTYYYLQDNTRGNGIFTYDAKYRTTLPGSLWADADNQFFASYDAPAVDAHYYAGVTYDYYKNVHNRLSYDGNNAAIRSSVHYSQGYNNAFWNGSQMVYGDGDGQTFIPLSGGIDVVAHELTHAVTDVTAGLIYQNESGAINEAISDIFGTLVEFYANKNPDWEIGEDVYTPGISGDSLRSMSDPAKYGDPDHYSKRYTGTQDNGGVHINSGIINKAAYLISQGGTHYGVSVVGIGRDKLGKIFYRALTQYLTPTSNFSQLRAAAVQSATDLYGSTSQEVASVKQAFDAVGVK
reported: 1.11

molecule: T278M: single-substitution thermolysin variant (SEQ ID NO:3 numbering) (protein, listed as Geobacillus caldoproteolyticus) ITGTSTVGVGRGVLGDQKNINTTYSTYYYLQDNTRGNGIFTYDAKYRTTLPGSLWADADNQFFASYDAPAVDAHYYAGVTYDYYKNVHNRLSYDGNNAAIRSSVHYSQGYNNAFWNGSQMVYGDGDGQTFIPLSGGIDVVAHELTHAVTDYTAGLIYQNESGAINEAISDIFGTLVEFYANKNPDWEIGEDVYTPGISGDSLRSMSDPAKYGDPDHYSKRYTGTQDNGGVHINSGIINKAAYLISQGGTHYGVSVVGIGRDKLGKIFYRALTQYLTPMSNFSQLRAAAVQSATDLYGSTSQEVASVKQAFDAVGVK
reported: 1.09
